target: CCR1 (Homo sapiens, UniProt P32246); test: Method A: calcium flux in CCR1 transfected cells (Fluo-4 NW, FLIPR TETRA), block of the CCR1/MIP-1α interaction; format: cell-based; settings: Method A: Fluo-4 NW, MIP-1 alpha at EC80
REPORTED_PROPERTY: IC50 (nM)

                               query_smiles                    system_under_test  reported_property  result_units  recorded_result
0  CS(=O)(=O)Nc1ccc(CNC(=O)c2cncc3c2cnn3-c2ccc(F)cc2)cn1  CCR1 (Homo sapiens, UniProt P32246)               IC50            nM               25
1  CCC[C@H](NC(=O)c1cncc2c1cnn2-c1ccc(F)cc1)c1cncc(S(=O)(=O)NC)c1  CCR1 (Homo sapiens, UniProt P32246)               IC50            nM              0.2
2  C[C@H](NC(=O)c1cncc2c1cnn2-c1ccc(Cl)cc1)c1cncc(Br)c1  CCR1 (Homo sapiens, UniProt P32246)               IC50            nM                2

[1] C[C@@H](CO)NS(=O)(=O)c1ccc(CNC(=O)c2cncc3c2cnn3-c2ccc(F)cc2)cc1
[2] CN(C)S(=O)(=O)Nc1ccc(CNC(=O)c2cncc3c2cnn3-c2ccc(F)cc2)cn1
I'm curious whether 1 or 2 has the smaller IC50 number. Which is it? Refer to your chosen item by its label in the answer.
1
(1: 2 nM, 2: 24 nM)

###

target: CCR1 (Homo sapiens); assay: Method A: calcium flux in CCR1 transfected cells (Fluo-4 NW, FLIPR TETRA), block of the CCR1/MIP-1α interaction; type: cell-based; conditions: Method A: Fluo-4 NW, MIP-1 alpha at EC80
REPORTED_PROPERTY: IC50 (nM)

[1] CN1CCC(N(C)S(=O)(=O)c2ccc(CNC(=O)c3cncc4c3cnn4-c3ccc(F)cc3)cc2)CC1
[2] COC1CCN(S(=O)(=O)c2ccc(CNC(=O)c3cncc4c3cnn4-c3ccc(F)cc3)cc2)CC1
[3] CCS(=O)(=O)c1ccc(CNC(=O)c2cncc3c2cnn3-c2ccc(F)cc2)cn1
[4] CN(C)S(=O)(=O)c1ccc(CNC(=O)c2cncc3c2cnn3-c2ccc(F)cc2)cn1
[5] CCC[C@H](NC(=O)c1cncc2c1cnn2-c1ccc(F)cc1)c1cncc(S(=O)(=O)CCC(=O)O)c1
I'd appreciate it if you could rank the compounds mentioned above by IC50, largest value first. Enter labels, ranked according to the request.
3, 5, 1, 4, 2

###

Biological target: CCR1 (Homo sapiens)
Sequence (P32246 1-355): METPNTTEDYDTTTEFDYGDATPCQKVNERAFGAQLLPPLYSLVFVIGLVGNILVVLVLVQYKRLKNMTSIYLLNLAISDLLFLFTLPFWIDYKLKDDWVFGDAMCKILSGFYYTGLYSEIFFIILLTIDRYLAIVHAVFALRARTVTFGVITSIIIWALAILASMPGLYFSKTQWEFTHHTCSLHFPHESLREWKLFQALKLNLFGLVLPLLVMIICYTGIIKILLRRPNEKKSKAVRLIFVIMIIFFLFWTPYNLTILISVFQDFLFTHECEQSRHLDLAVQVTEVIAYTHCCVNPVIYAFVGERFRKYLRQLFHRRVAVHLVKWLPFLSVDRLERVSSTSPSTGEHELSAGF
Test: Method B: calcium flux in CCR1 transfected cells (Calcium 4 dye, […] FDSS6000), block of the CCR1/MIP-1α interaction
Format: cell-based
Settings: Method B: Calcium 4 dye, MIP-1alpha at EC80
Protocol: Compounds are assessed for the ability to block the interaction of CCR1 and MIP-1α in a functional cellular assay measuring calcium flux in CCR1 transfected cells. Method B: Non-adherent cells purchased from Chemicon Corporation (HTS005C), stably expressing recombinant CCR1 and G-alpha-16 are grown in RPMI 1640 medium (Mediatech 10-080-CM) supplemented with 10% FBS, 0.4 mg/mL Geneticin and penicillin/streptomycin. […] All plates must be read within 4 hours of the start of dye-loading. […]
REPORTED_PROPERTY: IC50 (nM)

                                   compound  result_units  recorded_result
0  CC[C@H](NC(=O)c1cncc2c1cnn2-c1ccc(F)cc1)[C@@H]1CCN(S(C)(=O)=O)[C@@H](C(N)=O)C1            nM               10
1  CC[C@H](NC(=O)c1cncc2c1cnn2-c1ccc(F)cc1)c1cc(OC)nc(S(C)(=O)=O)c1            nM              0.1
2  CCC(CC)(NC(=O)c1cncc2c1cnn2-c1ccc(F)cc1)c1ccnc(S(C)(=O)=O)c1            nM               16

[I] CNc1cc([C@H](C)NC(=O)c2cncc3c2cnn3-c2ccc(F)cc2)cc(S(C)(=O)=O)n1
[II] C[C@H](NC(=O)c1cncc2c1cnn2-c1ccc(F)cc1)c1cnc(S(C)(=O)=O)o1
[III] CC[C@H](NC(=O)c1cncc2c1cnn2-c1ccc(F)cc1)c1ccc(OC)c(Br)c1
[IV] CC[C@H](NC(=O)c1cncc2c1cnn2-c1ccc(F)cc1)c1nc(C(=O)OC)co1
Task field, ranking: reported IC50, descending order. Enter labels, ranked according to the request.
IV, II, III, I
(IV: 38 nM, II: 19 nM, III: 7 nM, I: 0.4 nM)

[1] O=C(NCc1cc(Br)cs1)c1cncc2c1cnn2-c1ccc(F)cc1
[2] CC[C@H](NC(=O)c1cncc2c1cnn2-c1ccc(F)cc1)c1ccnc(C(N)=O)c1
[3] C=CC[C@H](NC(=O)c1cncc2c1cnn2-c1ccc(F)cc1)c1ccncc1
[4] CC[C@H](NC(=O)c1cncc2c1cnn2-c1ccc(F)cc1)c1cc(NCC(N)=O)nc(S(C)(=O)=O)c1
[5] CC[C@H](NC(=O)c1cncc2c1cnn2-c1ccc(F)cc1)c1ccnc(S(=O)(=O)CC)c1
Task field, ranking: reported IC50, descending order. Enter labels, ranked according to the request.
3, 1, 2, 4, 5

[A] CCC(C)(NC(=O)c1cncc2c1cnn2-c1ccc(F)cc1)c1ccnc(S(C)(=O)=O)c1 (stereo not drawn)
[B] CCC(NC(=O)c1cncc2c1cnn2-c1ccc(F)cc1)c1nc(C(=O)NC)c(C)o1 (stereo not drawn)
I'm curious whether A or B has the smaller IC50 number. Which is it? Refer to your chosen item by its label in the answer.
A

[I] CCC(NC(=O)c1cncc2c1cnn2-c1ccc(F)cc1)c1nc(C(N)=O)c(C)o1 (stereo not drawn)
[II] COc1cc(CNC(=O)c2cncc3c2cnn3-c2ccc(F)cc2)cc(S(C)(=O)=O)n1
I'm curious whether I or II has the smaller IC50 number. Which is it? Refer to your chosen item by its label in the answer.
II
(II: 1 nM, I: 26 nM)

[P] CCC(CC)(NC(=O)c1cncc2c1cnn2-c1ccc(F)cc1)c1ccnc(Br)c1
[Q] CC[C@H](NC(=O)c1cncc2c1cnn2-c1ccc(F)cc1)c1cncc(S(=O)(=O)CC)c1
I'm curious whether P or Q has the smaller IC50 number. Which is it? Refer to your chosen item by its label in the answer.
Q

Entry source: patent US8063065B2
